biological target: recombinant SnCDPK1; experiment: SnCDPK1 kinase activity assay; settings: read-out: SnCDPK1 enzyme IC50; inhibition of phosphorylation activity
pIC50: −log10 of the molar value.
measurement_name: pIC50

Prompt: I'm curious: which pIC50 was measured for CCOc1ccc2cc(-c3nn(C(C)(C)C)c(N)c3C(N)=O)cnc2c1 tested on recombinant SnCDPK1?
Response: > 8.00

Prompt: Same again, this time with CCOc1ccc2cc(-c3nn(CC4CCN(C)CC4)c4ncnc(N)c34)ccc2c1
Response: > 8.00

###

test system: S. neurona strain F9F merozoites; test: S. neurona parasite growth assay in bovine turbinate cells; assay type: cell-based, Sarcocystis neurona; conditions: Sarcocystis neurona, in Bos taurus, 96 h, read-out: S. neurona cell growth EC50
measurement_name: EC50 (nM)
Kindly answer with a numeric value in nM, unit omitted.

Prompt: Need EC50, item CCOc1ccc2cc(-c3nn(CC4CCN(C)CC4)c4ncnc(N)c34)ccc2c1
Response: 68
